Molecular target: stromelysin catalytic domain (Homo sapiens)
Sequence (P08254 100-272 limits assumed): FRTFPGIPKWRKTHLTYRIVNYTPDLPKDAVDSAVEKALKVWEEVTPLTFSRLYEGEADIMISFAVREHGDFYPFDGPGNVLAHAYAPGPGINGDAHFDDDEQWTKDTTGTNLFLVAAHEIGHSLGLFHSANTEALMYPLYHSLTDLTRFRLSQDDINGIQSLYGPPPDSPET
Experiment: stromelysin catalytic domain hydrolysis of thiopeptolide (SCD (T))
Assay type: biochemical
Conditions: thiopeptolide substrate; read-out: SCD (T) (IC50)
pIC50: −log10 of the molar value.
Measured Property: pIC50

For orientation, consider the following solved cases.
>  <Structure Smiles>
Cc1ccc(-c2ccc(S(=O)(=O)N[C@H](C(=O)O)C(C)C)cc2)cc1

>  <Measured>
7.92

$$$$
>  <Structure Smiles>
CC(C)[C@H](NS(=O)(=O)c1ccc(-c2ccc(N)cc2)cc1)C(=O)O

>  <Measured>
7.17

$$$$
>  <Structure Smiles>
CC(C)[C@H](NS(=O)(=O)c1ccc(-c2ccc(F)cc2)cc1)C(=O)O

>  <Measured>
7.85

$$$$
>  <Structure Smiles>
C[C@H](NS(=O)(=O)c1ccc(-c2ccc(Br)cc2)cc1)C(=O)O

>  <Measured>
7.55

$$$$
>  <Structure Smiles>
CC(C)[C@H](NS(=O)(=O)c1ccc(-c2ccc(Br)cc2F)cc1)C(=O)O

>  <Measured>
7.52

$$$$
>  <Structure Smiles>
CC(C)[C@H](NS(=O)(=O)c1ccc(-c2cccc(F)c2)cc1)C(=O)O

>  <Measured>
7.57

$$$$

(I) CC(C)[C@H](NS(=O)(=O)c1ccc(-c2ccc([N+](=O)[O-])cc2)cc1)C(=O)O
(II) O=C(O)CNS(=O)(=O)c1ccc(-c2ccc(Br)cc2)cc1
(III) CC(C)C[C@H](NS(=O)(=O)c1ccc(-c2ccc(Br)cc2)cc1)C(=O)O
(IV) CC(C)[C@H](NS(=O)(=O)c1ccc(-c2cccc(Br)c2)cc1)C(=O)O
**Q:** I would appreciate it if you could sort these 4 compounds by pIC50, starting from the smallest number. The reply should contain the labels ordered as requested.
**A:** IV, II, I, III
(IV: 6.46, II: 7.22, I: 7.51, III: 7.89)
